Test: protein stability index of a GFP-peptide fusion (GPS, HEK-293T) (PSI 1-6); higher = more stable;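 note: 24-mer peptide tiles fused after GFP, lentivirally expressed, FACS-sorted into six equal bins by GFP/DsRed ratio, decoded by Illumina sequencing, PSI is the read-weighted mean bin number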
Conditions: treatment: DMSO; c terminus: a fixed tail appended
Rule: true for protein stability index not less than 3, false for anything less.

[[record]]
query_sequence = "GAARSFQEVTEPAVVAVDRQAIFP [PXN]"
category_label = "true"

[[record]]
query_sequence = "SLEHVQLFDLMRRMLEFDPAQRIT [CLK3]"
category_label = "false"

[[record]]
query_sequence = "INGLQAWLLTHLLWFANAHLLSWF [DHCR7]"
category_label = "true"

[[record]]
query_sequence = "GASHVLALSTERELFAWGRGDSGR [NEK8]"
category_label = "true"

[[record]]
query_sequence = "WKPPDIKGKLMVCYETLPRGQCLL [SPAG8]"
category_label = "false"

[[record]]
query_sequence = "VLRCQLSAEEVRFPVSVTQQSPAA [C2CD2L]"
category_label = "true"

[[record]]
query_sequence = "VPKNYVVVLSDGPALHPAHAPQIS [NCK2]"
category_label = "false"

[[record]]
query_sequence = "ITATSLLGTRESDTEVITVEKSSP [BCL2L13]"
category_label = "true"

[[record]]
query_sequence = "PGRLTEALCLEVRPTYFEMKNEKL [RNF180]"
category_label = "true"

[[record]]
query_sequence = "SVIEEDLEEFQLALKHYVESASSQ [NECAB1]"
category_label = "true"

[[record]]
query_sequence = "QCKEWQVLMCGFPFLLLFLGNFFT [TMEM120A]"
category_label = "false"

[[record]]
query_sequence = "EHQRSHTGERPHQCIECGKSFNRH [ZSCAN9]"
category_label = "true"

[[record]]
query_sequence = "CLSFQPECSMKLTPLVLEVFGNEI [VDR]"
category_label = "false"

[[record]]
query_sequence = "VEKSSPATSLFVELDEEEVKAATT [BCL2L13]"
category_label = "true"

[[record]]
query_sequence = "MAEAEGVPTTPGPASGSTFRGRRD [RETREG3]"
category_label = "true"

[[record]]
query_sequence = "NDKMAEYTNSAGVPSLNAALMHTL [GOSR1]"
category_label = "true"

[[record]]
query_sequence = "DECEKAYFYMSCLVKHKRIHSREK [ZNF649]"
category_label = "false"

[[record]]
query_sequence = "FEPHSGEDYSRDEDHIAHIIELLG [SRPK2]"
category_label = "true"

[[record]]
query_sequence = "HQYWPAERSARYQYFVVDPMAEYN [PTPRD]"
category_label = "false"

[[record]]
query_sequence = "YLNSFLHQRIPQSVRILGSLVAIL [SLC29A1]"
category_label = "false"

[[record]]
query_sequence = "AGSIGGLFFAVGIAQYALLGYFIR [SLC22A15]"
category_label = "true"

[[record]]
query_sequence = "LIRGSTFAKAKPEIPWTSLTRKGL [PHTF1]"
category_label = "false"

[[record]]
query_sequence = "EAEQSLRNLEDIHMSLEKDIAAMT [TEKT4]"
category_label = "true"

[[record]]
query_sequence = "RITAAEALKHPWISHRSTVASCMH [CAMK2A]"
category_label = "false"

[[record]]
query_sequence = "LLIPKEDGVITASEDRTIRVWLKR [WDFY1]"
category_label = "false"

[[record]]
query_sequence = "NDLWPTMENLLQATKSHVDKVIMK [DYNC2LI1]"
category_label = "true"

[[record]]
query_sequence = "PVPVIVSNFNYFYHRETEGEEQAQ [KCNA1]"
category_label = "true"

